Where these numbers come from: ChEMBL document CHEMBL3271988

- assayText: Half life of the compound in water at pH 7 at 25 degC by spectrophotometry
- Type: physicochemical
Here, each record is paired with measured half-life data.
API: value field is a number in h; no unit string.

Exercise: Recorded half-life for `O=C1C(Cl)=CC(=NCl)C=C1Cl` , please?
Key: 40

Exercise: Again, but for `O=C1C=CC(=NCl)C=C1`
Key: 35.3

Exercise: Next compound: `COC1=C/C(=N\O)C=CC1=O`
Key: 298

Exercise: Input `O=C1C(Br)=CC(=NCl)C=C1Br`
Key: 23.3

Exercise: Again, but for `O=C1C(Cl)=CC(=NBr)C=C1Cl`
Key: 3.7

Further cases:
Exercise: Data request, read-out half-life, for `CN(C)c1ccc(N=C2C=CC(=O)C=C2)cc1`
Key: 700

====

- assayText: Redox potential of the compound in alcohol-water solution
- conditionNotes: buffer
quantityKind: Redox potential (V)
The response must be a number in V with no trailing unit.

Exercise: Query: Redox potential; subject: `CC(=O)NC1=C/C(=N\c2ccc(N(C)C)cc2)C=CC1=O`
Key: 0.58

Exercise: How about this compound: `O=C1C=C/C(=N/O)C=C1Cl`
Key: 0.516

Exercise: Then what about the compound `O=C1C=CC(=NO)C=C1` ?
Key: 0.544

Exercise: Same thing, different compound: `O=C1C=C/C(=N/O)C(Br)=C1`
Key: 0.532

Exercise: Subsequent entry: `O=C1C=CC(=NBr)C=C1`
Key: 0.518

Moving on to another compound below.
Exercise: # Redox potential lookup, item `CC(=O)Oc1ccc(N=C2C=CC(=O)C=C2)cc1`
Key: 0.633

====

- assayText: Acute toxicity in single ip dosed Swiss mouse assessed as death up to 5 days
- Assay type: organism-based
- conditionNotes: in vivo
This section presents compounds with their documented LD50 at 120 h values.
Field: value (include unit after the number)

Some solved entries appear below for comparison.
Exercise: What does the data say about its LD50 at 120 h? Entry: `CN(C)c1ccc(/N=C2/C=CC(=O)C(Cl)=C2)cc1`
Key: 100 mg/kg

Exercise: And what about the compound `O=C1C=CC(=NO)C=C1` ?
Key: 260 mg/kg

Exercise: Item: `O=C1C=C/C(=N/O)C(I)=C1`
Key: 550 mg/kg

Exercise: Ok, now `O=C1C=C/C(=N/O)C(Cl)=C1`
Key: 380 mg/kg

Next up:
Exercise: What LD50 at 120 h value was documented for this compound, `O=C1C(Cl)=CC(=NBr)C=C1Cl` ?
Key: 20 mg/kg

====

half-life by entry:
- assayText: Half life of the compound in water at pH 7 at 25 degC by spectrophotometry
- Type: physicochemical
Give the number; days is assumed, so skip it.

Recorded half-life, per entry:
Exercise: Record request: half-life value, item `O=C1C(Br)=CC(=NBr)C=C1Br`
Key: 0.433

Exercise: Subsequent entry: `CC1=C/C(=N\c2ccc(N(C)C)cc2)C=CC1=O`
Key: 83.8

Exercise: And then `O=C1C=C/C(=N/O)C=C1Cl` , what is it?
Key: 13.1

--- query ---
Exercise: # half-life lookup, item `CN(C)c1ccc(/N=C2/C=CC(=O)C(Cl)=C2)cc1`
Key: 19.9
